system: CCRF-CEM; assay: NCI tumour cell line growth inhibition, 48 h
Active and inactive are the calls of the source. Rule as the data show it: active = GI50 up to about 1.1 µM and inactive = higher.
Labels: active, inactive

>  <Compound>
CN(C)CCNC(=O)C(C)(C)Oc1ccc(C(=O)c2ccc(Cl)cc2)cc1Cl

>  <Answer label>
inactive

$$$$
>  <Compound>
CNC(=O)c1nc[nH]c1/N=N/N(C)N

>  <Answer label>
inactive

$$$$
>  <Compound>
COC(=O)Nc1nc2cc(C(=O)c3cccs3)ccc2[nH]1 [NOCODAZOLE]

>  <Answer label>
active

$$$$
>  <Compound>
NC(=O)CC(N)C(N)=O (configuration not stated)

>  <Answer label>
inactive

$$$$
>  <Compound>
Brc1c2nc3ccccc3nc2n2ccc3ccccc3c12

>  <Answer label>
inactive

$$$$
>  <Compound>
CSc1nc(SC)c2c(C)cn(Cc3ccccc3)c2n1

>  <Answer label>
inactive

$$$$
>  <Compound>
O=C1CCSSCCC(=O)Nc2ccccc2N1

>  <Answer label>
inactive

$$$$

The measurements presented in this section are drawn from ChEMBL document CHEMBL1201862.
